Test system: Rabbit - PRP (ADP- and collagen-induced platelet aggregation)
Test: Aggregometry - Rabbit - PRP, Ex Vivo
Type: in vivo
Conditions: Oryctolagus cuniculus, Collagen, ip, read-out: Ex Vivo ED50, Collagen
readout_kind: ED50 (mg/kg)
Give bare numbers, in mg/kg.

CC(=O)Oc1ccccc1C(=O)O = 3
O=C1C(CC[S+]([O-])c2ccccc2)C(=O)N(c2ccccc2)N1c1ccccc1 (stereo not shown) = 3

The record that follows has no ED50 shown yet.
Let me know recorded ED50 for "O=C1CN2Cc3c(ccc(Cl)c3Cl)N=C2N1" , thanks.
1

====

Test system: Endotoxin Shock
Assay: In Vivo Animal Model: Rat Endotoxin Shock
Conditions: po
Assignment: determine reported ED50 for the given compounds.

Solved cases (3 shown):
CC(=O)Oc1ccccc1C(=O)O = > 256 mg/kg
OCCN(CCO)c1nc(N2CCCCC2)c2nc(N(CCO)CCO)nc(N3CCCCC3)c2n1 = > 256 mg/kg
O=C1CN2Cc3c(ccc(Cl)c3Cl)N=C2N1 = 25 mg/kg

Provide the reported ED50 (system: Endotoxin Shock) for O=C1C(CC[S+]([O-])c2ccccc2)C(=O)N(c2ccccc2)N1c1ccccc1 (stereo not shown)
> 128 mg/kg
